Sourced from the supplement of paper PMC9170038

System: MS2 coat protein
assay_details: apparent KD of MS2 coat protein; designed switch direction (-1 OFF switch, 1 ON switch): -1; higher = weaker reporter binding
applied_conditions: Eterna round: R95; input ligand: microRNA oligo, concentration not stated
Hi, to clarify the labels: Met covers apparent KD of MS2 coat protein from 0.02 µM upward, Not met covers anything below 0.02 µM.

sequence_string	qualitative_label
ACUAGAUGAGGAUAUGCAUAUUUUCGUGUUCUUCUAGAUUAACAUGAGGAUCACCCAUGUAGAAGGCGUCAUUU [Exclusion 2 - 16] (puzzle: Exclusion 2)	Not met

# bool: apparent KD of MS2 coat protein of GUGUACAGAGGAUAUACACGAGUAGUUACGAAAGUAACUAUACAUGAGGAUCACCCAUGUAGAAGGCUGUACAC [Dot plot directed v2] (puzzle: Exclusion 2) >= 0.02 µM
Not met

# bool: apparent KD of MS2 coat protein of GAUUAUGCGAGCUUUAGGGACAUGAGGAUCACCCAUGUUCGUCUUAUUAGUCUGGGUGCGCUAACAUACCUAAAUCU [JMF 53] (puzzle: Sensor v3, turn-off variant 1) >= 0.02 µM
Met

# bool: apparent KD of MS2 coat protein of ACAUUGCUAGGAUAUCGCGGUAAGGACAUGAGGAUCACCCAUGUGGUGCCGUGGGAGGCCCGAGAAGGAGCGACCU [Maveonle] (puzzle: Exclusion 5) >= 0.02 µM
Not met

# bool: apparent KD of MS2 coat protein of GCACGGUAAGUGAGGAUAUACCUCUGGAUACAGAGGUAGAAGGCACAUGAGGAUCACCCAUGUCCAAGCCGUGC [Fiskers BMX 4 - 84] (puzzle: Brourd's mod of Exclusion 4) >= 0.02 µM
Met
